# reported AUC of dose-response viability curve; entries follow
System: 786-O
Test: AUC of dose-response viability curve, drug + dasatinib, normalised to DMSO (arbitrary (AUC of normalised viability)); higher = less growth inhibition
Settings: treatment: drug + dasatinib (fixed dose, not stated); 5 days
Give the value as a plain number.

Past entries and their recorded results:
Quick check: AUC of dose-response viability curve of CN1C(=O)C(Cc2c[nH]c3ccccc23)NC1=S (stereo not given) [Necrostatin-1] + Cc1nc(Nc2ncc(C(=O)Nc3c(C)cccc3Cl)s2)cc(N2CCN(CCO)CC2)n1 ?
2.48

Also CNC(=O)c1nn(C)c2c1C(C)(C)Cc1cnc(Nc3ccc(N4CCN(C)CC4)cc3)nc1-2 + Cc1nc(Nc2ncc(C(=O)Nc3c(C)cccc3Cl)s2)cc(N2CCN(CCO)CC2)n1 , if possible.
1.35

Continuing:
Which value of AUC of dose-response viability curve has been reported for COc1ccc2c(OCc3nnc4ccc(-c5ccccc5)nn34)ccnc2c1 [AMG-208] + Cc1nc(Nc2ncc(C(=O)Nc3c(C)cccc3Cl)s2)cc(N2CCN(CCO)CC2)n1 in the records?
2.6

What about this compound? NC(=O)Nc1cc(-c2cccc(F)c2)sc1C(=O)N[C@H]1CCCNC1 [AZD7762] + Cc1nc(Nc2ncc(C(=O)Nc3c(C)cccc3Cl)s2)cc(N2CCN(CCO)CC2)n1
0.834

Same question for CCCCOc1c(C(=O)c2c(F)cc(C)cc2F)cnc2[nH]ncc12 + Cc1nc(Nc2ncc(C(=O)Nc3c(C)cccc3Cl)s2)cc(N2CCN(CCO)CC2)n1 please.
1.09

And Cn1c(=O)c(F)c(Nc2ccc(I)cc2F)c2c(=O)n(C[C@@H](O)CO)cnc21 [TAK-733] + Cc1nc(Nc2ncc(C(=O)Nc3c(C)cccc3Cl)s2)cc(N2CCN(CCO)CC2)n1 ?
1.96

Query C=CC(=O)Nc1cccc(Sc2nc(Nc3ccc(N4CCN(C)CC4)cc3)ncc2Cl)c1 [WZ8040] + Cc1nc(Nc2ncc(C(=O)Nc3c(C)cccc3Cl)s2)cc(N2CCN(CCO)CC2)n1 next
2.05

Now consider C=CCc1cccc(/C=N/NC(=O)CN2CCN(Cc3ccccc3)CC2)c1O [PAC-1] + Cc1nc(Nc2ncc(C(=O)Nc3c(C)cccc3Cl)s2)cc(N2CCN(CCO)CC2)n1 and answer again.
1.73

Now the compound CS(=O)(=O)O.O=C(Nc1cccc(Cl)c1)Nc1ncc(CCNc2ncnc3ccsc23)s1 [SNS-314] + Cc1nc(Nc2ncc(C(=O)Nc3c(C)cccc3Cl)s2)cc(N2CCN(CCO)CC2)n1
1.54

Consider next the compound Nc1ncnc2c1c(-c1cnc3[nH]ccc3c1)nn2C1CCCC1 [PP-121] + Cc1nc(Nc2ncc(C(=O)Nc3c(C)cccc3Cl)s2)cc(N2CCN(CCO)CC2)n1 in the same way.
1.44

----------
System: 769-P
Experiment: AUC of dose-response viability curve, drug alone (arbitrary (AUC of normalised viability)); higher = less growth inhibition
Details: treatment: drug alone; 5 days
Rule for this label: rule met means AUC of dose-response viability curve is less than 3; rule not met means AUC of dose-response viability curve is at least 3.

Worked set:
Report whether reported AUC of dose-response viability curve is lower than 3 (strictly) for CO[C@H]1C[C@@H]2CC[C@@H](C)[C@@](O)(O2)C(=O)C(=O)N2CCCC[C@H]2C(=O)O[C@H]([C@H](C)C[C@@H]2CC[C@@H](OCCO)[C@H](OC)C2)CC(=O)[C@H](C)/C=C(\C)[C@@H](O)[C@@H](OC)C(=O)[C@H](C)C[C@H](C)/C=C/C=C/C=C/1C [Everolimus (RAD001)]
rule met

Same lookup for O=C(Nc1cc(C(F)(F)F)cc(C(F)(F)F)c1)c1cc(Cl)ccc1O [IMD 0354] , please.
rule met

Please answer likewise for COc1cc(Nc2c(C#N)cnc3cc(OCCCN4CCN(C)CC4)c(OC)cc23)c(Cl)cc1Cl [Bosutinib (SKI-606)]
rule met

Then O=C(c1ccc(/C=C/c2n[nH]c3ccccc23)cc1)N1CCNCC1 [KW 2449] ?
rule not met

Here is the next compound: CCN(CC)CCCCNc1ncc2cc(-c3cc(OC)cc(OC)c3)c(NC(=O)NC(C)(C)C)nc2n1
rule not met

Okay, now this compound:
Does the reported AUC of dose-response viability curve of C#Cc1cccc(Nc2ncnc3cc(OCCOC)c(OCCO)cc23)c1.Cl [OSI-420 (Desmethyl Erlotinib)] stay below 3?
rule met

----------
Tested on: SN12C
Experiment: minimum viability across doses, drug alone, relative to DMSO (fraction); higher = less growth inhibition
Conditions: treatment: drug alone; 5 days
Recorded minimum viability across doses, one value per entry.
The response must contain the number and no unit.

Entry O=C(Nc1ccc(OC(F)(F)F)cc1)c1sccc1NCc1ccnc2ccccc12 : reported minimum viability across doses = ?
0.158

Same thing, different compound: COc1cc2c(Nc3ccc(Br)cc3F)ncnc2cc1OCC1CCN(C)CC1 [Vandetanib (Zactima)]
0.507

Can you check CN1CCN(CCOc2cc(OC3CCOCC3)c3c(Nc4c(Cl)ccc5c4OCO5)ncnc3c2)CC1 next?
0.504

// same read-out, input: O=C1NC(=O)/C(=C/c2ccc(-c3ccc(F)cc3O)o2)S1
0.917

Now let's try a different one.
Would you mind telling me what minimum viability across doses value was observed for S=C(NCc1ccc2c(c1)OCO2)N1CCN(c2ncnc3c2oc2ccccc23)CC1 [Amuvatinib (MP-470)] ?
0.0586

----------
System: SN12C
Experiment: GI50 of drug in presence of dasatinib; higher = less potent
Conditions: treatment: drug + dasatinib (fixed dose, not stated); 5 days
readout-name: GI50 of drug (nM)
Write it as a number; the unit nM goes unstated.

Param readout= GI50 of drug; system= SN12C; entry= Clc1ccc(C2(c3ccc(-c4cn[nH]c4)cc3)CCNCC2)cc1 [AT7867] + Cc1nc(Nc2ncc(C(=O)Nc3c(C)cccc3Cl)s2)cc(N2CCN(CCO)CC2)n1 [dasatinib] ; returns value.
3460

---
# query: GI50 of drug | item Cc1cnc(Nc2ccc(OCCN3CCCC3)cc2)nc1Nc1cccc(S(=O)(=O)NC(C)(C)C)c1 + Cc1nc(Nc2ncc(C(=O)Nc3c(C)cccc3Cl)s2)cc(N2CCN(CCO)CC2)n1 [dasatinib] | system: SN12C
949

Now this one: S=C(NCc1ccc2c(c1)OCO2)N1CCN(c2ncnc3c2oc2ccccc23)CC1 [Amuvatinib (MP-470)_R2] + Cc1nc(Nc2ncc(C(=O)Nc3c(C)cccc3Cl)s2)cc(N2CCN(CCO)CC2)n1 [dasatinib]
1630

----------
Each record here notes measured log10 GI50 of drug.
System: SN12C
Test: GI50 of drug in presence of dasatinib; higher = less potent
Conditions: treatment: drug + dasatinib (fixed dose, not stated); 5 days
Recall that a logarithmic scale is used here: each number is log10 of GI50 of drug in µM.

Param item = C=CC(=O)Nc1cc2c(Nc3ccc(F)c(Cl)c3)ncnc2cc1OCCCN1CCOCC1 [CI-1033 (Canertinib)] + Cc1nc(Nc2ncc(C(=O)Nc3c(C)cccc3Cl)s2)cc(N2CCN(CCO)CC2)n1 ; retrieve measured log10 GI50 of drug.
-0.01

Okay, and CNC(=O)c1cccc(-c2ccc3c(N4CCOC[C@@H]4C)nc(N4CCOC[C@@H]4C)nc3n2)c1 [AZD2014] + Cc1nc(Nc2ncc(C(=O)Nc3c(C)cccc3Cl)s2)cc(N2CCN(CCO)CC2)n1 ?
-1.05

Item: CC(=O)Nc1nc(C)c(-c2ccc(Cl)c(S(=O)(=O)NCCO)c2)s1 [PIK-93] + Cc1nc(Nc2ncc(C(=O)Nc3c(C)cccc3Cl)s2)cc(N2CCN(CCO)CC2)n1
0.28

Subsequent entry: COc1ccc(-c2ccc3c(N4CCOCC4)nc(N4C[C@@H](C)O[C@@H](C)C4)nc3n2)cc1CO + Cc1nc(Nc2ncc(C(=O)Nc3c(C)cccc3Cl)s2)cc(N2CCN(CCO)CC2)n1
-0.32

Continuing:
Can you share its log10 GI50 of drug? I mean this compound: CN1CCN(c2ccc3nc(-c4c(N)c5c(F)cccc5[nH]c4=O)[nH]c3c2)CC1 [Dovitinib (TKI-258)] + Cc1nc(Nc2ncc(C(=O)Nc3c(C)cccc3Cl)s2)cc(N2CCN(CCO)CC2)n1
-0.58

----------
System: A498
Assay: GI50 of drug in presence of dasatinib; higher = less potent
Settings: treatment: drug + dasatinib (fixed dose, not stated); 5 days
readout-name: GI50 of drug (µM)
Express your answer in µM, writing the number without its unit.

Examples with their reported GI50 of drug follow.
# query: GI50 of drug of entry COc1cc2nccc(Oc3ccc(NC(=O)C4(C(=O)Nc5ccc(F)cc5)CC4)cc3)c2cc1OC [XL-184 free base (Cabozantinib)] + Cc1nc(Nc2ncc(C(=O)Nc3c(C)cccc3Cl)s2)cc(N2CCN(CCO)CC2)n1 [dasatinib]
8.99

CNC(=O)c1ccccc1Sc1ccc2c(/C=C/c3ccccn3)n[nH]c2c1 [Axitinib] + Cc1nc(Nc2ncc(C(=O)Nc3c(C)cccc3Cl)s2)cc(N2CCN(CCO)CC2)n1 [dasatinib] ?
7.69

Moving on to the next compound: Cc1cnc(Nc2ccc(OCCN3CCCC3)cc2)nc1Nc1cccc(S(=O)(=O)NC(C)(C)C)c1 + Cc1nc(Nc2ncc(C(=O)Nc3c(C)cccc3Cl)s2)cc(N2CCN(CCO)CC2)n1 [dasatinib]
3.5

Continue with the compound presented below.
Name the reported GI50 of drug value associated with the compound CC(=O)Nc1ccc(NC(=S)NC(=O)c2ccc(C(C)(C)C)cc2)cc1 [Tenovin-1] + Cc1nc(Nc2ncc(C(=O)Nc3c(C)cccc3Cl)s2)cc(N2CCN(CCO)CC2)n1 [dasatinib]
0.854
